Data provenance: ChEMBL document CHEMBL1139410

# study target: C-C chemokine receptor type 4 (Homo sapiens, UniProt P51679)
# assay method text: Antagonist activity at human CCR4 receptor by [35S]GTPgammaS binding assay
# Assay type: functional
assay endpoint: IC50 (nM)

Examples with answers:
[ask] I'd like to know its IC50. The compound in question is COc1cc2nc(N3CCC(N(C)CCCCO)CC3)nc(Nc3ccc(Cl)cc3)c2cc1OC
[reply] 61

[ask] Do the same for COc1cc2nc(N3CCC(N4CCCC4)CC3)nc(Nc3ccc(F)cc3)c2cc1OC please
[reply] 31

[ask] Do the same for COc1cc2nc(N3CCCN(CCN4CCCCC4)CC3)nc(Nc3ccc(Cl)cc3)c2cc1OC please
[reply] 130

[ask] Do the same for COc1cc2nc(N3CCCN(CCN4CCCC4)CC3)nc(Nc3ccc(Cl)cc3)c2cc1OC please
[reply] 150

[ask] Do the same for COc1cc2nc(N3CCC(N4CCCC4)CC3)nc(Nc3cccc(Br)c3)c2cc1OC please
[reply] 220

[ask] Do the same for COc1cc2nc(N3CCCN(C4CCCCC4)CC3)nc(Nc3ccc(Cl)cc3)c2cc1OC please
[reply] 550

(a) CCN(CC)CCN1CCCN(c2nc(Nc3ccc(Cl)cc3)c3cc(OC)c(OC)cc3n2)CC1
(b) COc1cc2nc(N3CCC(N4CCCC4)CC3)nc(Nc3ccc(F)c(F)c3)c2cc1OC
[ask] Parameter metric = IC50. Return the lower-valued option from a and b . Indicate your choice by writing its label.
[reply] b

(1) COc1cc2nc(N3CCC(N4CCCC4)CC3)nc(Nc3ccc(Cl)cc3)c2cc1OC
(2) COc1cc2nc(N3CCC(N(C)CCCO)CC3)nc(Nc3ccc(Cl)cc3)c2cc1OC
[ask] Parameter metric = IC50. Return the lower-valued option from 1 and 2 . Indicate your choice by writing its label.
[reply] 1

###

# study target: C-C chemokine receptor type 4 (Homo sapiens)
# Sequence (P51679 whole entry): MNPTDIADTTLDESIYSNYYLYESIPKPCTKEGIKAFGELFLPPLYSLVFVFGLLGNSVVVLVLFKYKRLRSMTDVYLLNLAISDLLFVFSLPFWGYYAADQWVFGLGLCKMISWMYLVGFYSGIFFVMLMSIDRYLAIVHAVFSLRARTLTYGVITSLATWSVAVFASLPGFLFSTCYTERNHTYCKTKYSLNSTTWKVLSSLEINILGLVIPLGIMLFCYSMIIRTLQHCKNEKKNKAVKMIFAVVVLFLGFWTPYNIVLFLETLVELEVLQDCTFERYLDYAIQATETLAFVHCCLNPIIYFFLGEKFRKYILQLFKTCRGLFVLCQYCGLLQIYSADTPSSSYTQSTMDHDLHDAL
# assay method text: Displacement of […]CCL22 from human CCR4 receptor by scintillation proximity assay
assay endpoint: IC50 (nM)

(a) COc1cc2nc(N3CCC(N4CCCC4)CC3)nc(Nc3cccc(Br)c3)c2cc1OC
(b) COc1cc2nc(N3CCC(N4CCCC4)CC3)nc(Nc3ccc(Cl)cc3)c2cc1OC
[ask] Could you kindly indicate whether a or b has the higher IC50 value? Indicate your choice by writing its label.
[reply] a

###

# study target: C-C chemokine receptor type 4 (Mus musculus)
# Sequence (whole entry): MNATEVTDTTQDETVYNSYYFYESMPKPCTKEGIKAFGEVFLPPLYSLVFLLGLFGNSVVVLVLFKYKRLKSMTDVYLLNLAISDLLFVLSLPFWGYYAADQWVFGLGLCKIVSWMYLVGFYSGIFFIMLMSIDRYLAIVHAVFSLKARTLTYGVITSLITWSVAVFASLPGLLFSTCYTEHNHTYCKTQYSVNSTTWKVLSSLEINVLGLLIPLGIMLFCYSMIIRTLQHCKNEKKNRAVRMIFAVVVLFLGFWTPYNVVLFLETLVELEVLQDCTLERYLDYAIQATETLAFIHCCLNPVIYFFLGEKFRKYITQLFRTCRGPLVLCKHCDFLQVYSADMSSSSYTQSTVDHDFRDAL
# assay method text: Antagonist activity at mouse CCR4 receptor assessed as inhibition of CCL22-induced chemotaxis at 1 uM by bioluminescent assay
# Format: functional
assay endpoint: inhibition (%)

(1) CCN(CC)CCN1CCCN(c2nc(Nc3ccc(Cl)cc3)c3cc(OC)c(OC)cc3n2)CC1
(2) COc1cc2nc(N3CCC(N4CCCC4)CC3)nc(Nc3cccc(Br)c3)c2cc1OC
[ask] Parameter metric = inhibition. Return the lower-valued option from 1 and 2 . Indicate your choice by writing its label.
[reply] 2
